Task for the reader: assign each of the following compounds its reported p53-positive nuclei, normalised.
target: Cellular tumor antigen p53 (Homo sapiens); experiment: nuclear p53 accumulation, HPV+ cells – imaging, p53-positive nuclei imaging, 24 h, 48 h (AID 1508601); conditions: 24/48 h, measured here: p53 positive nuclei at 24 h, Library stock concentration: 80 uM, stronger effect = higher value
In all, about 5,700 compounds went through this assay and about 85 (1%) were called active. The sample as a whole holds a higher share of actives than the screen did.
Quick note: number first, unit second.

What p53-positive nuclei, normalised value was documented for this compound, O=C1NCCCc2c1oc1ccc(O)cc21 ? -0.0621%

If you can, please state the reported p53-positive nuclei, normalised value of CC(=O)NC(CC(C)C)C(=O)NC(CC(C)C)C(=O)NC(C=O)CCCN=C(N)N (stereo not drawn) . -0.0474%

What value of measured p53-positive nuclei, normalised is listed for O=C1SC(=Cc2ccc(OCc3cccc(B(O)O)c3)cc2)C(=O)N1Cc1ccc(F)cc1 ? 0.0618%

Data origin, for the record: PubChem BioAssay AID1508601
